Origin of measurements: patent US20120165304A1

Molecular target: human 5-HT2C receptor (Homo sapiens, UniProt P28335, I156V/I160V/N158S)
Sequence (P28335 33-458 I156V/N158S/I160V limits assumed): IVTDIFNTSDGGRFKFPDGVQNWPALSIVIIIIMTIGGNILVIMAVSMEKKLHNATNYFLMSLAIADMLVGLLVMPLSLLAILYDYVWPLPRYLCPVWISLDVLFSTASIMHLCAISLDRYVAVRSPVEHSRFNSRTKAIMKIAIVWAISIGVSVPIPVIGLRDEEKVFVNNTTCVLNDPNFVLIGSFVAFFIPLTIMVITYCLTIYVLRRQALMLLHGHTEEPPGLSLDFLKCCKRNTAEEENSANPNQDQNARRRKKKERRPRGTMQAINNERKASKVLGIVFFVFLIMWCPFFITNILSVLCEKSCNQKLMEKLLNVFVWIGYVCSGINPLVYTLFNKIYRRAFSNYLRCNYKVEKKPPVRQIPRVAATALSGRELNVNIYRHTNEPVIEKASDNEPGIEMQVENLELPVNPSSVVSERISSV
Test: cell-based
readout name: pEC50
Reminder that pEC50 means the negative base-10 logarithm of the concentration expressed in mol/L.

Q) Any idea what pEC50 was measured for CC(C)CNC(=O)C1CN(c2c3c(nc4ccnn24)CCNCC3)C1 ?
A) 7.09

Q) Any idea what pEC50 was measured for Cc1ccc2c(c1)CCN2C(=O)C1CN(c2c3c(nc4ccnn24)CCNCC3)C1 ?
A) 6.87

Q) Any idea what pEC50 was measured for Cc1cnn2c(N3CC(C(=O)N4CCC5(CC4)OCc4ccccc45)C3)c3c(nc12)CCNCC3 ?
A) 7.07

Q) Any idea what pEC50 was measured for CCC(C)(C)NC(=O)C1CN(c2c3c(nc4ccnn24)CCNCC3)C1 ?
A) 6.93

Q) Any idea what pEC50 was measured for O=C(NCc1ccc(OC(F)F)cc1)C1CN(c2c3c(nc4ccnn24)CCNCC3)C1 ?
A) 8.10

Q) Any idea what pEC50 was measured for CN1CCc2nc3ccnn3c(N3CC(C(=O)NC4CC5CCC(C4)N5C)C3)c2CC1 (stereo not drawn) ?
A) 6.43

Q) Any idea what pEC50 was measured for CN(c1ccccc1)C1CCN(C(=O)C2CN(c3c4c(nc5ccnn35)CCNCC4)C2)CC1 ?
A) 8.70

Q) Any idea what pEC50 was measured for O=C(C1CN(c2c3c(nc4ccnn24)CCNCC3)C1)N1CC[C@H](Oc2ccccc2)C1 ?
A) 7.47

Q) Any idea what pEC50 was measured for CC1CNCCc2c1nc1ccnn1c2N1CC(C(=O)N2CCC(C)(C)C2)C1 (stereo not drawn) ?
A) 7.51

###

Would you kindly list pEC50 for each of these molecules?
Molecular target: human 5-HT2C receptor (Homo sapiens, UniProt P28335, I156V/I160V/N158S)
Assay: cell-based
Reminder that pEC50 means the negative base-10 logarithm of the concentration expressed in mol/L.

Q) What measured pEC50 is associated with CCc1cnn2c(N3CCCCC3)c3c(nc12)CCNCC3 [Example 25] on human 5-HT2C receptor (Homo sapiens, UniProt P28335, I156V/I160V/N158S)?
A) 6.97

Q) What measured pEC50 is associated with Cc1cnn2c(N3CC(C(=O)N4CCC5(CCCCC5)CC4)C3)c3c(nc12)CCNCC3 [Example 31.235] on human 5-HT2C receptor (Homo sapiens, UniProt P28335, I156V/I160V/N158S)?
A) 7.08

Q) What measured pEC50 is associated with O=C(NCc1ccccc1)C1CCN(c2c3c(nc4ccnn24)CCNCC3)CC1 [Example 1.24] on human 5-HT2C receptor (Homo sapiens, UniProt P28335, I156V/I160V/N158S)?
A) 5.88

###

Would you kindly list pEC50 for each of these compounds?
Molecular target: human 5-HT2C receptor (Homo sapiens, UniProt P28335, I156V/I160V/N158S)
Assay: cell-based
Reminder that pEC50 means the negative base-10 logarithm of the concentration expressed in mol/L.

Q) Any idea what pEC50 was measured for CC(C)CN1CCN(C(=O)C2CN(c3c4c(nc5ccnn35)CCNCC4)C2)CC1 [Example 37.15] ?
A) 8.52

Q) Any idea what pEC50 was measured for Cn1c(C2CN(c3c4c(nc5ccnn35)CCNCC4)C2)nc2ccc(Cl)cc21 [Example 34.6] ?
A) 7.19

Q) Any idea what pEC50 was measured for O=C(C1CN(c2c3c(nc4ccnn24)CCNCC3)C1)N1CCc2ccc(Br)cc2C1 [Example 31.209] ?
A) 7.02
